test: LD50 (mouse), acute toxicity; conditions: in vivo, ip
Attribute measured: LD50
Could you kindly put the unit after your number?

Entry CC(CC#N)N(C)CC(=O)N(C)c1ccc(Cl)cc1C(=O)c1ccccc1 (stereo not shown) — recorded LD50 = 320 mg/kg

Entry CC(C#N)CN(C)CC(=O)N(C)c1ccc([N+](=O)[O-])cc1C(=O)c1ccccc1 (stereo not shown) — recorded LD50 = 480 mg/kg

Entry "CCCCN(CCC#N)CC(=O)N(C)c1ccc([N+](=O)[O-])cc1C(=O)c1ccccc1" — recorded LD50 = 680 mg/kg

Entry "CN(C(=O)CNCC#N)c1ccc(Cl)cc1C(=O)c1ccccc1" — recorded LD50 = 170 mg/kg

Entry CC(CC#N)NCC(=O)N(C)c1ccccc1C(=O)c1ccccc1 (stereo not shown) — recorded LD50 = 320 mg/kg

###

Listed next: entries and their corresponding responders at 8 mg/kg.
Tested on: central nervous system
Experiment: climbing test on albino mice, sedative action on the central nervous system
Assay type: in vivo
Settings: Mus musculus, po, dose 8 mg/kg p.o., read-out: Sedative action % (percentage of animals which no longer take up the climbing work)
Procedure: The pharmacological investigation of the sedative action on the central nervous system was carried out using the climbing tests on albino mice described by P. K. KNEIP: Arch. int. pharmacodyn 126, 238 (1960) and R. DOMENJOZ and W. THEOBALD: Arch. int. pharmacodyn 120, 450 (1959). In the table which follows, the results of the pharmacological investigations carried out are summarised. […]
Please respond with the number in % and leave the unit unwritten.

CC(CC#N)NCC(=O)N(C)c1ccccc1C(=O)c1ccccc1 (centres unmarked) | 70
Cc1ccc(N(C)C(=O)CNCCC#N)c(C(=O)c2ccccc2)c1 | 50
CC(CC#N)NCC(=O)N(C)c1ccc(Cl)cc1C(=O)c1ccccc1 (centres unmarked) | 50
CN(CCC(=O)O)CC(=O)Nc1ccc(Cl)cc1C(=O)c1ccccc1 | 90
Cc1ccc(N(C)C(=O)CNC(C)CC#N)c(C(=O)c2ccccc2)c1 (centres unmarked) | 70

Entry "CN(C(=O)CNCC#N)c1ccc(Cl)cc1C(=O)c1ccccc1" — recorded responders at 8 mg/kg = 60

Entry "C=CCN(CCC#N)CC(=O)Nc1ccc(Cl)cc1C(=O)c1ccccc1Cl" — recorded responders at 8 mg/kg = 60

Entry "CCCCN(CCC#N)CC(=O)N(C)c1ccc(Cl)cc1C(=O)c1ccccc1" — recorded responders at 8 mg/kg = 80

Entry "COc1ccc(N(C)C(=O)CNCCC#N)c(C(=O)c2ccccc2)c1" — recorded responders at 8 mg/kg = 50

Entry "CCOC(=O)CCNCC(=O)N(C)c1ccc(C)cc1C(=O)c1ccccc1" — recorded responders at 8 mg/kg = 50

###

Listed next: entries and their corresponding LD50.
assay: LD50 (mouse), acute toxicity; conditions: in vivo, po

Entry "CN(CCC#N)CC(=O)N(C)c1ccc([N+](=O)[O-])cc1C(=O)c1ccccc1" — recorded LD50 = > 1000 mg/kg

Entry "COC(=O)CNCC(=O)N(C)c1ccc(Cl)cc1C(=O)c1ccccc1" — recorded LD50 = 950 mg/kg

Entry CC(CC#N)NCC(=O)Nc1ccccc1C(=O)c1ccccc1 (stereo not shown) — recorded LD50 = > 1000 mg/kg

Entry CC(C#N)CN(C)CC(=O)N(C)c1ccc([N+](=O)[O-])cc1C(=O)c1ccccc1 (stereo not shown) — recorded LD50 = 1100 mg/kg
